test: Pharmacokinetics of PZ-128 in plasma and urine after 1 to 2 hours iv infusion; type: in vivo, human; conditions: human, plasma, intravenous, 0.5 mg/kg
Peptide text beside a SMILES is read from it. * marks the point of attachment. Palmitoyl = CCCCCCCCCCCCCCCC(=O)*
attribute.measured: Cmax

Data request: So what's the measured Cmax for this one? CCCCCCCCCCCCCCCC(=O)N[C@@H](CCCCN)C(=O)N[C@@H](CCCCN)C(=O)N[C@@H](CO)C(=O)N[C@@H](CCCNC(=N)N)C(=O)N[C@@H](C)C(=O)N[C@@H](CC(C)C)C(=O)N[C@@H](Cc1ccccc1)C(N)=O [PZ-128] (Palmitoyl-KKSRALF-NH2)
Data returned: 1.8 to 2.7 µM

###

experiment: Pharmacokinetics of PZ-128 in plasma and urine after 1 to 2 hours iv infusion; format: in vivo, human; conditions: human, plasma, intravenous
Peptide text beside a SMILES is read from it. * marks the point of attachment. Palmitoyl = CCCCCCCCCCCCCCCC(=O)*
attribute.measured: Cmax

Data request: Requested read-out: Cmax. Entry: CCCCCCCCCCCCCCCC(=O)N[C@@H](CCCCN)C(=O)N[C@@H](CCCCN)C(=O)N[C@@H](CO)C(=O)N[C@@H](CCCNC(=N)N)C(=O)N[C@@H](C)C(=O)N[C@@H](CC(C)C)C(=O)N[C@@H](Cc1ccccc1)C(N)=O [PZ-128] (Palmitoyl-KKSRALF-NH2)
Data returned: 4.7 to 21.5 µM

###

experiment: Pharmacokinetics of PZ-128 in plasma and urine after 1 to 2 hours iv infusion; format: in vivo, human; details: human, plasma, iv
Peptide text beside a SMILES is read from it. * marks the point of attachment. Palmitoyl = CCCCCCCCCCCCCCCC(=O)*
attribute.measured: level at time molar

Data request: So what does the record say about level at time molar for CCCCCCCCCCCCCCCC(=O)N[C@@H](CCCCN)C(=O)N[C@@H](CCCCN)C(=O)N[C@@H](CO)C(=O)N[C@@H](CCCNC(=N)N)C(=O)N[C@@H](C)C(=O)N[C@@H](CC(C)C)C(=O)N[C@@H](Cc1ccccc1)C(N)=O [PZ-128] (Palmitoyl-KKSRALF-NH2) ?
Data returned: 1000 to 3000 nM

###

assay: Pharmacokinetics of PZ-128 in plasma and urine after 1 to 2 hours iv infusion; type: in vivo, human; conditions: human, plasma, intravenous
Peptide text beside a SMILES is read from it. * marks the point of attachment. Palmitoyl = CCCCCCCCCCCCCCCC(=O)*
attribute.measured: Vd

Data request: Param item = CCCCCCCCCCCCCCCC(=O)N[C@@H](CCCCN)C(=O)N[C@@H](CCCCN)C(=O)N[C@@H](CO)C(=O)N[C@@H](CCCNC(=N)N)C(=O)N[C@@H](C)C(=O)N[C@@H](CC(C)C)C(=O)N[C@@H](Cc1ccccc1)C(N)=O [PZ-128] (Palmitoyl-KKSRALF-NH2) ; retrieve measured Vd.
Data returned: 0.11 to 0.17 L/kg

###

assay: Pharmacokinetics of PZ-128 in plasma and urine after 1 to 2 hours iv infusion; format: in vivo, human; details: human, plasma, iv, 0.5 mg/kg
Peptide text beside a SMILES is read from it. * marks the point of attachment. Palmitoyl = CCCCCCCCCCCCCCCC(=O)*
attribute.measured: level at time molar at 6 h

Data request: // level at time molar at 6 h lookup, key: CCCCCCCCCCCCCCCC(=O)N[C@@H](CCCCN)C(=O)N[C@@H](CCCCN)C(=O)N[C@@H](CO)C(=O)N[C@@H](CCCNC(=N)N)C(=O)N[C@@H](C)C(=O)N[C@@H](CC(C)C)C(=O)N[C@@H](Cc1ccccc1)C(N)=O [PZ-128] (Palmitoyl-KKSRALF-NH2)
Data returned: < 500 nM
